Reference for the values: paper PMC3740138

System: LNCaP cells
Assay: DHT-stimulated LNCaP cell proliferation (real-time impedance, E-plates)
Type: cell-based, human
Conditions: Homo sapiens; LNCaP, co-treated with 0.1 nM DHT, 72 h; read-out: IC50 for inhibition of proliferation of androgen-stimulated cells
Readout type: pIC50
// field semantics: pIC50 = negative decimal log of concentration (mol/L)

What the record says about C[C@H](CCC(=O)O)[C@H]1CC[C@H]2[C@@H]3CC[C@@H]4C[C@H](O)CC[C@]4(C)[C@H]3CC[C@]12C [LCA, Lithocholic acid] : pIC50 is 5.07

----------
Test system: PC-3 cells
Assay: Percentage of intact cells (Hoechst 33342 / propidium iodide counting), PC-3
Type: cell-based, human
Conditions: PC-3, 48 h, tested 10–500 µM
Readout type: Concentrations decreasing cell viability / number of intact cells

Molecule: C[C@H](CCC(=O)O)[C@H]1CC[C@H]2[C@@H]3C[C@H](O)[C@@H]4C[C@H](O)CC[C@]4(C)[C@H]3CC[C@]12C
Experimental target: PC-3 cells
Result: above 300 µM
//
Molecule: C[C@H](CCC(=O)O)[C@H]1CC[C@H]2[C@@H]3[C@H](O)C[C@@H]4C[C@H](O)CC[C@]4(C)[C@H]3CC[C@]12C
Experimental target: PC-3 cells
Result: above 100 µM
//
Molecule: C[C@H](CCC(=O)O)[C@H]1CC[C@H]2[C@@H]3[C@@H](O)C[C@@H]4C[C@H](O)CC[C@]4(C)[C@H]3CC[C@]12C [UDCA, ursodeoxycholic acid, reference compound]
Experimental target: PC-3 cells
Result: above 300 µM
//
Molecule: C[C@H](CCC(=O)O)[C@H]1CC[C@H]2[C@@H]3[C@H](O)C[C@@H]4C[C@H](O)CC[C@]4(C)[C@H]3C[C@H](O)[C@]12C
Experimental target: PC-3 cells
Result: > 500 µM

Kindly review the next molecule as well.
Record `C[C@H](CCC(=O)O)[C@H]1CC[C@H]2[C@@H]3CC[C@@H]4C[C@H](O)CC[C@]4(C)[C@H]3C[C@H](O)[C@]12C` has PC-3 cells Concentrations decreasing cell viability / number of intact cells equal to above 100 µM
